Molecular target: human TLR7 (Homo sapiens, UniProt Q9NYK1)
Construct: host or cells: HEK-Blue cells
Assay: TLR7 inhibition reporter assay (HEK-Blue cells, SEAP reporter, gardiquimod stimulation)
Format: cell-based
Settings: HEK-Blue cells overexpressing human TLR7, SEAP reporter, gardiquimod 7.5 μM; read-out: TLR7 IC50
reported_metric: IC50 (nM)

Worked set:
compound	IC50, nM
Cc1c(-c2[nH]c3sc(C4CCC(N5CC(O)(C(F)(F)F)C5)CC4)nc3c2C(C)C)cn(C)c(=O)c1C (single isomer, unassigned) [Example 267]	24.3
CC(C)c1c(-c2cn(C)c3ncccc23)[nH]c2sc(C3CCC(NC45CC(C4)C5)CC3)nc12 (single isomer, unassigned) [Example 176]	23.3
COc1cc(-c2[nH]c3sc(C4CCC(NCC(C)(C)O)CC4)nc3c2C(C)C)cn2ncnc12 (single isomer, unassigned) [Example 85]	2.66
Cc1c(-c2[nH]c3sc(C4CCC(N5CCC5)CC4)nc3c2C(C)C)cn2ncnc2c1C (single isomer, unassigned) [Example 217]	2.41
COc1cc(-c2[nH]c3sc(C4CCC(N5CCS(=O)(=O)CC5)CC4)nc3c2C(C)C)cn2ncnc12 (single isomer, unassigned) [Example 83]	6.33

(I) Cc1c(-c2[nH]c3sc(N4CCC(NCC(C)(C)O)CC4)nc3c2C(C)C)cn2ncnc2c1C [Example 291]
(II) COc1cc(-c2[nH]c3sc(C4CCC(N(C)C(C)C)CC4)nc3c2C(C)C)cn2ncnc12 (single isomer, unassigned) [Example 89]
(III) COC1CN(C2CCC(c3nc4c(C(C)C)c(-c5cn6ncnc6c(C)c5C)[nH]c4s3)CC2)C1 (single isomer, unassigned) [Example 188]
In: Sort entries by IC50 from minimum to maximum value. I would appreciate it if you listed the labels in the requested order.
Out: III, II, I

(P) Cc1c(-c2[nH]c3sc(N4CCC(NC5(C)COC5)CC4)nc3c2C(C)C)cn2ncnc2c1C [Example 290]
(Q) Cc1c(-c2[nH]c3sc(N4CCC(N(C)C(C)C)CC4)nc3c2C(C)C)cn2ncnc2c1C [Example 292]
In: // compare: P vs Q , metric IC50, want the smaller // caller expects the label of the chosen entry
Out: Q
(Q: 3.18 nM, P: 8.56 nM)

---

Molecular target: human TLR8 (Homo sapiens)
Construct: host or cells: HEK-Blue cells
Sequence (Q9NR97 27-1041): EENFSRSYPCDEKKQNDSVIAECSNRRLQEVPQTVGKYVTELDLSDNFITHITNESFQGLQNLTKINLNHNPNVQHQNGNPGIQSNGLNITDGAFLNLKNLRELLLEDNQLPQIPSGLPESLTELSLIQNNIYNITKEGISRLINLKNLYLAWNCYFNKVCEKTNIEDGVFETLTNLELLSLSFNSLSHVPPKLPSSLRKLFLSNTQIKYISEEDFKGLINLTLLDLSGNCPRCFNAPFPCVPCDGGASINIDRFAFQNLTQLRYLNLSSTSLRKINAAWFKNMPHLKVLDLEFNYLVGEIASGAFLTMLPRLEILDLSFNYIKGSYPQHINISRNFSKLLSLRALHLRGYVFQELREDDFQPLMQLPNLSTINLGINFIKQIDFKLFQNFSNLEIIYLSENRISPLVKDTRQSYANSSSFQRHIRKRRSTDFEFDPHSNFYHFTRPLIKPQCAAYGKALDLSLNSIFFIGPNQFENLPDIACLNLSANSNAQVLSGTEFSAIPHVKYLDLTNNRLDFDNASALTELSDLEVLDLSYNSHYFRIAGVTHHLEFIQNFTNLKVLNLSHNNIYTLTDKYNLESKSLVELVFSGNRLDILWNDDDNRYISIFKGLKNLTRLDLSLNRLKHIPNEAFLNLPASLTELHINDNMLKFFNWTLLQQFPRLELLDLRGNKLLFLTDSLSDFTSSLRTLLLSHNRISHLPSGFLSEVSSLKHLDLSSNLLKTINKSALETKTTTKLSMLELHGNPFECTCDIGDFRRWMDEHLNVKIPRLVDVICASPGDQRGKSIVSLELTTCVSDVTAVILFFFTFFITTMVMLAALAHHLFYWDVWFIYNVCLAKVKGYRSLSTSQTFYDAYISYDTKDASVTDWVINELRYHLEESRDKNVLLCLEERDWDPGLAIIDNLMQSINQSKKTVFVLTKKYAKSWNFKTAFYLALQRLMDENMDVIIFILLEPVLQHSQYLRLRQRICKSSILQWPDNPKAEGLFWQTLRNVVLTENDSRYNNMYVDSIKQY
Assay: TLR8 inhibition reporter assay (HEK-Blue cells, SEAP reporter, R848 stimulation)
Format: cell-based
Conditions: HEK-Blue cells overexpressing human TLR8, SEAP reporter, R848 15.9 μM; read-out: TLR8 IC50
Excerpt: TLR7/8/9 Inhibition Reporter Assays HEK-Blue™-cells (Invivogen) overexpressing human TLR7, TLR8 or TLR9 receptors were used for screening inhibitors of these receptors using an inducible SEAP (secreted embryonic alkaline phosphatase) reporter gene under the control of the IFN-β minimal promoter fused to five NF-κB and AP-1-binding sites. […]
Counter-ions that a name gives are not always drawn.
reported_metric: IC50 (nM)

For orientation, consider the following solved cases.
compound	reported_metric	value_units	assay_result
Cc1c(-c2[nH]c3sc(N4CCNC[C@H]4C)nc3c2C(C)C)cn2ncnc2c1C [Example 308, HCl]	IC50	nM	0.09
Cc1c(-c2[nH]c3sc(C4CCC(NC(C)C)CC4)nc3c2C(C)C)cn(C)c(=O)c1C (single isomer, unassigned) [Example 254]	IC50	nM	22.7
Cc1c(-c2[nH]c3sc(N4CCN(CC(N)=O)C[C@H]4C)nc3c2C(C)C)cn2ncnc2c1C	IC50	nM	1.72
CC(C)c1c(-c2cn(C)c3ncccc23)[nH]c2sc(C3CCN(CCS(C)(=O)=O)CC3)nc12	IC50	nM	1.52
Cc1c(-c2[nH]c3sc(C(N)=O)nc3c2C(C)C)cn2ncnc2c1C	IC50	nM	31.4
Cc1c(-c2[nH]c3sc(C4CCC(NC5CCS(=O)(=O)C5)CC4)nc3c2C(C)C)cn2ncnc2c1C (single isomer, unassigned) [Example 232]	IC50	nM	7.87
COc1cc(-c2[nH]c3sc(C4CCC(N(C)C(C)C)CC4)nc3c2C(C)C)cn2ncnc12 (single isomer, unassigned) [Example 88]	IC50	nM	1.84
COc1cc(-c2[nH]c3sc(C4CCC(NC56CC(C5)C6)CC4)nc3c2C(C)C)cn2ncnc12 (single isomer, unassigned) [Example 169]	IC50	nM	17

(A) CCc1c(-c2cc(OC)c3ncnn3c2)[nH]c2sc(C3CCC(NC4COC4)CC3)nc12 (single isomer, unassigned) [Example 271]
(B) COc1cc(-c2[nH]c3sc(C4CCN(C(=O)CN(C)C)CC4)nc3c2C(C)C)cn2ncnc12
In: Hey, which is lower on measured IC50, A or B ? Write down the label of the entry you select.
Out: A

---

Molecular target: human TLR7 (Homo sapiens, UniProt Q9NYK1)
Construct: host or cells: HEK-Blue cells
Sequence (Q9NYK1 27-1049): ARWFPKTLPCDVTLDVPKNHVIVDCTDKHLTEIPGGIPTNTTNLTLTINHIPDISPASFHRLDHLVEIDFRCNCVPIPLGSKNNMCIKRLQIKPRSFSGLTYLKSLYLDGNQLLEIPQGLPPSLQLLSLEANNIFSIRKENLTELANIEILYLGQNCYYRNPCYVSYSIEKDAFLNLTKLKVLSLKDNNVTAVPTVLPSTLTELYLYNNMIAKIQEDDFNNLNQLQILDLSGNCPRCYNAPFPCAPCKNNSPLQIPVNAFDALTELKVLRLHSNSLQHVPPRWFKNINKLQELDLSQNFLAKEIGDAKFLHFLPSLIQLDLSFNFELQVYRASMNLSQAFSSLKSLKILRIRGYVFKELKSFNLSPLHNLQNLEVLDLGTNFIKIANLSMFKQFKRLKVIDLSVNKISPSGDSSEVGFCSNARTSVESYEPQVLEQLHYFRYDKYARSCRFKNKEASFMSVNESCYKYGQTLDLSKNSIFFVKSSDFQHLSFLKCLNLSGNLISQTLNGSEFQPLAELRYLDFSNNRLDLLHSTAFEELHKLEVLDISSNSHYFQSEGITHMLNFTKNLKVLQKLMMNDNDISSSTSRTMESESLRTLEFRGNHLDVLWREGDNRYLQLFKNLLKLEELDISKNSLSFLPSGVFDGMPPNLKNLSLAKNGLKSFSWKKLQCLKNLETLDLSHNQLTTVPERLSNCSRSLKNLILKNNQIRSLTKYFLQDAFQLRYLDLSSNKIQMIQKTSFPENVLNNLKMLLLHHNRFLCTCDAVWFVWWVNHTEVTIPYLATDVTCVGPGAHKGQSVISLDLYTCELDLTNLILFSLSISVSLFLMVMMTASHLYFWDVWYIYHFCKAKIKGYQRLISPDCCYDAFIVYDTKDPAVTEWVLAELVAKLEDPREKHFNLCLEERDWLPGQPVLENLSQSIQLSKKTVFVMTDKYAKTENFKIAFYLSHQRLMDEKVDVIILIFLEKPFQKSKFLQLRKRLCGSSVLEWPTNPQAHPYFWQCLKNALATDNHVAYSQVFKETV
Assay: TLR7 inhibition reporter assay (HEK-Blue cells, SEAP reporter, gardiquimod stimulation)
Format: cell-based
Conditions: HEK-Blue cells overexpressing human TLR7, SEAP reporter, gardiquimod 7.5 μM; read-out: TLR7 IC50
pIC50: −log10 of the molar value.
reported_metric: pIC50

Record excerpt, results attached:
molecule	study_system	assay_result
Cc1cc(-c2[nH]c3sc(C(=O)NCCN(C)C)nc3c2C(C)C)cn2ncnc12	human TLR7 (Homo sapiens, UniProt Q9NYK1)	7.87
CC(C)c1c(-c2ccc(C#N)c3ncccc23)[nH]c2sc(C3CCN(C(=O)CN(C)C)CC3)nc12	human TLR7 (Homo sapiens, UniProt Q9NYK1)	8.08
COc1cc(-c2[nH]c3sc(C4CCC(N5CCC6(CCNC6)C5)CC4)nc3c2C(C)C)cn2ncnc12 (single isomer, unassigned) [Example 115]	human TLR7 (Homo sapiens, UniProt Q9NYK1)	7.93
COC(C)(C)CNC1CCC(c2nc3c(C(C)C)c(-c4cn5ncnc5c(C)c4C)[nH]c3s2)CC1 (single isomer, unassigned) [Example 187]	human TLR7 (Homo sapiens, UniProt Q9NYK1)	7.98
Cc1cc2ncnn2cc1-c1[nH]c2sc(C3CCC(N(C)C(C)C)CC3)nc2c1C(C)C (single isomer, unassigned) [Example 159]	human TLR7 (Homo sapiens, UniProt Q9NYK1)	8.06

(A) COc1cc(-c2[nH]c3sc(C(=O)NCC(F)(F)F)nc3c2C(C)C)cn2ncnc12
(B) Cc1c(-c2[nH]c3sc(N4CCC(N)CC4)nc3c2C(C)C)cn2ncnc2c1C
In: In the pair A and B , the larger recorded pIC50 belongs to which? Respond using the label that marks the chosen record.
Out: B
(B: 8.85, A: 7.03)

---

Molecular target: human TLR8 (Homo sapiens)
Construct: host or cells: HEK-Blue cells
Test: TLR8 inhibition reporter assay (HEK-Blue cells, SEAP reporter, R848 stimulation)
Format: cell-based
Conditions: HEK-Blue cells overexpressing human TLR8, SEAP reporter, R848 15.9 μM; read-out: TLR8 IC50
pIC50: −log10 of the molar value.
reported_metric: pIC50

compound	pIC50
COc1cc(-c2[nH]c3sc(C4CCC(NC56CC(C5)C6)CC4)nc3c2C(C)C)cn2ncnc12 (single isomer, unassigned) [Example 168]	7.47

(A) COc1cc(-c2[nH]c3sc(C4CCC(NC(=O)CN(C)C)CC4)nc3c2C(C)C)cn2ncnc12 (stereo not shown)
(B) Cc1c(-c2[nH]c3sc(N4CCN(C5CCOCC5)C[C@@H]4C)nc3c2C(C)C)cn2ncnc2c1C
(C) Cc1c(-c2[nH]c3sc(C4CCC(N5CC6(CCOCC6)C5)CC4)nc3c2C(C)C)cn2ncnc2c1C (single isomer, unassigned) [Example 239]
(D) CCN1C[C@H](C)N(c2nc3c(C(C)C)c(-c4cn5ncnc5c(C)c4C)[nH]c3s2)C[C@H]1C
In: Put the compounds in ascending order of pIC50. Put the labels in the requested order and write them down.
Out: A, D, C, B
(A: 8.17, D: 9.31, C: 9.57, B: 9.92)

(a) COc1cc(-c2[nH]c3sc(C4CCC(N5CCC5)CC4)nc3c2C(C)C)cn2ncnc12 (single isomer, unassigned) [Example 77]
(b) CC(C)c1c(-c2cn(C)c3ncccc23)[nH]c2sc(C3CCC(N4CC5(COC5)C4)CC3)nc12 (single isomer, unassigned) [Example 180]
(c) Cc1cc(-c2[nH]c3sc(C4CCN(C(=O)CN(C)C)CC4)nc3c2C(C)C)cc(C)n1
(d) COC1CN(C2CCC(c3nc4c(C(C)C)c(-c5cn6ncnc6cc5C)[nH]c4s3)CC2)C1 (single isomer, unassigned) [Example 150]
(e) Cc1c(-c2[nH]c3sc(N4CCN(C(C)C)C[C@@H]4C)nc3c2C(C)C)cn2ncnc2c1C
In: Hello, I need these entries ordered by pIC50, highest reading first. Thanks! # format: label list in the order the request specifies
Out: d, e, b, a, c
(d: 9.41, e: 9.01, b: 8.43, a: 7.67, c: 6.58)

Each recorded value in this set is attributed to patent US20230139171A1.
